test: amyloid nucleation score (Sup35N fusion, yeast selection) (log enrichment); library NNK1; higher = more nucleation; inactive = no reads after selection;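 note: zero at mode of non-aggregating sequences after 7 days selection at 30°C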
Classification field: enter criterion met for amyloid nucleation score values not below 0.04, criterion not met for values below it.

Would you please look over these solved cases?
              substance        label_value
0         HRKTSPISENQVY  criterion not met
1          GYFDMFTKIVVL      criterion met
2                IIQRAM      criterion met
3     LYHIGIGLKRSFNDAYV  criterion not met
4  EKGRFVRLDERLYYLCVVWS      criterion met

QUERY: Reported amyloid nucleation score reaches at least 0.04 for MALLARFRGAFLVCSGFIAC ?
RESULT: criterion not met

QUERY: Reported amyloid nucleation score reaches at least 0.04 for RGLLYS ?
RESULT: criterion met

QUERY: Reported amyloid nucleation score reaches at least 0.04 for TSIFDEMSHVEEVRRTMIRG ?
RESULT: criterion met

QUERY: Reported amyloid nucleation score reaches at least 0.04 for NTLYYRSFRAIQLPGGENQN ?
RESULT: criterion not met

---

test: amyloid nucleation score (Sup35N fusion, yeast selection) (log enrichment); library NNK1; higher = more nucleation; inactive = no reads after selection
Exercise: state measured amyloid nucleation score for each of the substances provided.
Answers are plain numbers.

>>> print(df.to_string())
              substance  endpoint_result
0         RAKTWDGRGAKQP             1.22
1  ILTVLLISMWVMNHLIFLGL           -0.563
2  CDYVKRLDNLLGYPLWWGRW             0.22
3         SDAMSTHQRVNRF            0.369
4  LQTLGNWLHFKYAYWLLSNL            -0.55

Hi! Can you tell me amyloid nucleation score for each of these substances?
1. VTMDCLMLPYRKGNPN
2. RYSLYQSEWVGKSMRDLTAR
3. IGCGGVPKNQCWGPERFLEW
4. GKVIQHG

RESULT:
1: 0.996; 2: 1.03; 3: -0.132; 4: -0.579

Hi! Can you tell me amyloid nucleation score for each of these substances?
1. NCNLSQWLIRQPKRAVSTHT
2. AGVCRNNSPLIHTFNF
3. YWIFFNT
4. VGSCCNQ
5. WRTSEFSHSLVKYVLSRVLT
6. RNFLIVLPSVYRGPFI
7. RQDGYPRCIVRVILLECSLI

RESULT:
1: 0.243; 2: 0.728; 3: 3.16; 4: 7.59; 5: 1.31; 6: 5.36; 7: -0.321

Hi! Can you tell me amyloid nucleation score for each of these substances?
1. LIISFVIVSRMLSVRFSTIV
2. QVALYKVVVYKTWDVGFPSC
3. MDLGRMSSGFMRSNMNKKVR
4. YELKQSL
5. RKASYLSAVNMQFRESFLFW
6. EGYAWGPYLKLTRSKLRMSF
7. GVGNTRQRVFRVVHCLAMLQ
8. SCGWDLVCGMMAVHSSGIVL

RESULT:
1. 0.262
2. 0.988
3. 0.519
4. -0.301
5. -0.209
6. -0.374
7. 0.634
8. 0.975

Hi! Can you tell me amyloid nucleation score for each of these substances?
1. WLTRFRRGAACRDLLWRGER
2. GFFDSCLEMFTLSTYFCTFY
3. HLHLGCWW
4. NFGNVNFVYVTWMVAESSAC
5. GMSALYSGDVL
6. LMKCCNVMGCGDDA
7. VNFYDLVL

RESULT:
-0.096
2.86
3.31
5.92
-0.118
2.45
0.318

Hi! Can you tell me amyloid nucleation score for each of these substances?
1. ADNFLFWHVIEYKENLDHAR
2. RHVSPFNSS
3. CSDSNIPLHNHSWGTSVVDN
4. KLTHVNDLLTMVVNVSRAQG

RESULT:
-1.32
-0.222
1.31
-0.004

Hi! Can you tell me amyloid nucleation score for each of these substances?
1. THSRFSYGVVNR
2. LVVYRSKQRSYCCM
3. NSKCSLIQCTGPLVRERRSY
4. FFELYRVLCTNAFLWCKGYV
5. FCQGYRLGS
6. SMKCRNGILWFQRLVYLLLS
7. NNVRVDKACGEAMEDEKRVV

RESULT:
[0.683, -0.359, 0.058, -0.423, 0.19, -0.747, 0.672]

Hi! Can you tell me amyloid nucleation score for each of these substances?
1. MPLAKSPLTLG
2. PSQRNKIPGMLSLYY
3. RSVSLKWQSRKHWLLTLTLA
4. LMPPSG
5. VCINFHYLVGINVIRRNDWV
6. ELMCNTQSLSAETCFGKKSY
7. NGFDTKYSLEGLGYSWPMLV
8. WPWNEPY

RESULT:
1. 4.39
2. -0.193
3. 0.931
4. 0.072
5. 4.48
6. 0.97
7. 0.407
8. -0.251

Hi! Can you tell me amyloid nucleation score for each of these substances?
1. TRYLRIWSPSQMICMWGRFL
2. NYLTHG
3. GSFHTQRTWAFVVVVEVHGK

RESULT:
1: 0.145; 2: 0.311; 3: 0.232

---

assay: amyloid nucleation score (Sup35N fusion, yeast selection) (log enrichment); library NNK1; higher = more nucleation; inactive = no reads after selection
metric_name: amyloid nucleation score
Answers are plain numbers.

Hi! Can you tell me amyloid nucleation score for each of these substances?
1. RWSFSSTY
2. AMQGACGFISGGFSVARVFV
3. RQLVIIFNDDLGDVGNGNFC
4. EFELRASNLPFNVFPIGFSN

RESULT:
3.69
0.296
7.61
1.07

Hi! Can you tell me amyloid nucleation score for each of these substances?
1. LFYPFTLHWVCCSWCLYEVR
2. TRFVVVVMIISQLRCLLCDM
3. AWDVLMHM
4. YVCFVQSCFYARQGHMSGEA
5. TDNTSFELYIWTDAFLKQTT
6. LVVQLYS

RESULT:
6.93
0.61
0.248
0.165
0.208
-0.336

Hi! Can you tell me amyloid nucleation score for each of these substances?
1. VRLNNCNLFFCYMTRIAFAE
2. RCFECEGALV

RESULT:
[4.96, -0.08]

Hi! Can you tell me amyloid nucleation score for each of these substances?
1. PKARYRFSWLTRYNLNNRRE
2. DWWLPGMLMNRGGLQIVVLV

RESULT:
[-0.608, -0.84]

Hi! Can you tell me amyloid nucleation score for each of these substances?
1. LWFSYATCICIPRIPSNC
2. HTKDSGSVARCVVSNLSCNT
3. LLWNDCGFLRWASGH

RESULT:
1. 6.26
2. 1.09
3. 2.59

---

test: amyloid nucleation score (Sup35N fusion, yeast selection) (log enrichment); library NNK2; higher = more nucleation; inactive = no reads after selection
Classification field: enter y for amyloid nucleation score values not below -0.3, n for values below it.

Would you please look over these solved cases?
In [3]: df
Out[3]:
              substance  label_value
0    LSHMPDMALAKPWHRARD            y
1              VLEITLCG            y
2  CTSLRYFCARFELLSAHSKW            y
3  VGSFIFLLRCWLSCAIAGVQ            n
4  TNWVDWESYISCGGNGFGGC            n

QUERY: Reported amyloid nucleation score reaches at least -0.3 for FYLMPDCLWGGKSSWSFLHL ?
RESULT: n

QUERY: Reported amyloid nucleation score reaches at least -0.3 for LYWAFTTISLYLTSTFVSLM ?
RESULT: n

QUERY: Reported amyloid nucleation score reaches at least -0.3 for RSYVHYGLLAWCYIRVSWDP ?
RESULT: y

QUERY: Reported amyloid nucleation score reaches at least -0.3 for CYGRIM ?
RESULT: y

---

Exercise: state measured amyloid nucleation score for each of the sequences provided.
experiment: amyloid nucleation score (Sup35N fusion, yeast selection) (log enrichment); library NNK2; higher = more nucleation; inactive = no reads after selection
Numbers only.

These recorded examples may help you get a feel for the data.
>>> print(df.to_string())
        record_sequence               metric_name  endpoint_result
0  VGGWSLYSSPVLLRIWFKRH  amyloid nucleation score            0.087
1  LQYFLGAFAILFMCLLWVLQ  amyloid nucleation score            0.381
2  TLGSLLLLMSWVEGLQKHLI  amyloid nucleation score            0.888

Hi! Can you tell me amyloid nucleation score for each of these sequences?
1. TNATSGGHMLMIYEDFNVYL
2. MTGNIEIIRMCRCTTYGMTY
3. CCNMTHYDFSGYNDGAMQDC
4. LFLSLKYPLSYYASTVDNLA
5. NFLADCLDGSANAIWVHVAS

RESULT:
1: 2.49; 2: 1.09; 3: -0.424; 4: 0.6; 5: 0.57
